- Test system: Salmonella typhimurium
- assay-details: Mutagenic activity in Salmonella Typhimurium TA100 by Ames assay
- Type: toxicity, organism-based
- study-conditions: salmonella enterica subsp. enterica serovar typhimurium

# substance-smiles, tgt, Activity
data = [
    ("Cc1cc2c(c(=S)[nH]1)C(=O)O/C2=C\\c1ccco1", "Salmonella typhimurium", "Active"),
    ("Cc1cc2c(c(=S)[nH]1)C(=O)O/C2=C\\c1ccc(C)o1", "Salmonella typhimurium", "Active"),
    ("Cc1cc2c(c(=S)[nH]1)C(=O)O/C2=C\\c1cccs1", "Salmonella typhimurium", "Not Active"),
    ("Cc1cc2c(c(=S)[nH]1)C(=O)O/C2=C\\c1csc2ccccc12", "Salmonella typhimurium", "Not Active"),
    ("Cc1cc2c(c(=S)[nH]1)C(=O)O/C2=C\\c1ccc[nH]1", "Salmonella typhimurium", "Not Active"),
]
